- experiment: APR_HepG2_CellCycleArrest_72hr: Apredica 72-hour HepG2 Assay for Cell Cycle Arrest (AID 2282914)
- condition details: high-content imaging, actives raise or lower the signal
Calls of active or inactive are those of the source. The calls were made as follows: active = hit-call score of the fitted dose curve at least 0.9, where 1 is the maximum; inactive = score below 0.9.
Allowed answers: active, inactive

>>> print(df.to_string())
                                 compound     label
0      OC(Cn1cncn1)(Cn1cncn1)c1ccc(F)cc1F  inactive
1  O=c1[nH]cnc2c1ncn2[C@H]1CC[C@@H](CO)O1  inactive
2                         CCCC(CCC)C(=O)O  inactive

In: Name the outcome recorded for CCCCCCCCCC in the assay.
Out: inactive

In: Name the outcome recorded for CCCCCCOC(=O)CC(CC(=O)OCCCCCC)(OC(=O)CCC)C(=O)OCCCCCC in the assay.
Out: inactive

In: Name the outcome recorded for CNC(C)=O in the assay.
Out: inactive

In: Name the outcome recorded for CC(C)C(=O)Nc1ccc([N+](=O)[O-])c(C(F)(F)F)c1 in the assay.
Out: active

In: Name the outcome recorded for CC1(C)C(=O)N(Cl)C(=O)N1Cl in the assay.
Out: inactive

Sourced from PubChem BioAssay (EPA / NIEHS)
